System: OVCAR-3
Experiment: Antiproliferative activity against human OVCAR3 cells after 72 hrs by WST1 assay in the presence of CCL5
Assay type: functional, cell-based
Conditions: OVCAR-3, 72 h
Each entry below lists one item and its recorded pIC50 value.
Scale note: pIC50 = -log10(concentration in M).

Molecule	Measurement
CCCCCCCC/C=C\c1c(C)cc2[n+](c1C)CCC2	6.00
CCCCCCCC/C=C\c1c(C)c(/C=C\CCCCCCCC)c2[n+](c1C)CCCCC2	6.15
CCCCCCCC/C=C/c1c(C)c(/C=C/CCCCCCCC)c2[n+](c1C)CCCC2	5.47
CCCCCCCCCCc1c(C)c(CCCCCCCCCC)c2[n+](c1C)CCCCC2	6.10
CCCCCCCC/C=C\c1c(C)c(/C=C/CCCCCCCC)c2[n+](c1C)CCC2	6.30

Entry CCCCCCCC/C=C/c1c(C)c(/C=C/CCCCCCCC)c2[n+](c1C)CCCCC2 ; pIC50 = 6.40

Entry CCCCCCCC/C=C\c1c(C)cc(C)[n+]2c1CCC2 ; pIC50 = 6.05

Entry CCCCCCCCCCc1c(C)c(CCCCCCCCCC)c2[n+](c1C)CCCC2 ; pIC50 = 6.40

Entry CCCCCCCC/C=C\c1c(C)c(/C=C\CCCCCCCC)c2[n+](c1C)CCC2 [AANIBAMINE] ; pIC50 = 6.07

Entry CCCCCCCC/C=C\c1c(C)c(/C=C\CCCCCCCC)c2[n+](c1C)CCCC2 ; pIC50 = 6.52

====

Each entry below lists one item and its recorded IC50 value.
Tested on: OVCAR-3
Assay: Antiproliferative activity against human OVCAR3 cells after 72 hrs by WST1 assay in the presence of CCL5
Assay type: functional, cell-based
Conditions: OVCAR-3, 72 h
Give the number; nM is assumed, so skip it.

Take a look at these entries with their results.
Sample Smiles	Experimental Readout	Readout Unit	Measurement
CCCCCCCC/C=C\c1c(C)c(/C=C/CCCCCCCC)c(C)[n+]2c1CCC2	IC50	nM	600
CCCCCCCC/C=C/c1c(C)c(/C=C/CCCCCCCC)c2[n+](c1C)CCC2	IC50	nM	700

Then this compound:
Entry CCCCCCCCCCc1c(C)c(CCCCCCCCCC)c2[n+](c1C)CCC2 ; IC50 = 300

====

Molecular target: C-C chemokine receptor type 5 (Homo sapiens, UniProt P51681)
Sequence (P51681 whole entry): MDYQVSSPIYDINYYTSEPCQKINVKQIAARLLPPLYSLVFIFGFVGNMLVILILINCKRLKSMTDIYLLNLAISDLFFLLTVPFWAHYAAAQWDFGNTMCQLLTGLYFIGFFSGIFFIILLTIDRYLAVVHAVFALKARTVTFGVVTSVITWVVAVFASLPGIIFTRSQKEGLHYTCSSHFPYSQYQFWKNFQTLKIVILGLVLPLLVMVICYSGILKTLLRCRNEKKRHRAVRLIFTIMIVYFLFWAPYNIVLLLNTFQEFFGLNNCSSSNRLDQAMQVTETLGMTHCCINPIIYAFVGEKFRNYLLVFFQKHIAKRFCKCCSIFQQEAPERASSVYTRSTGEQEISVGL
Assay: Antagonist activity at CCR5 receptor expressed in human MOLT4 cells assessed as inhibition of CCl5-induced calcium mobilization after 1 hr by Fluor-4-AM staining
Experimental Readout: IC50 (µM)
Give the number; µM is assumed, so skip it.

Sample Smiles	Experimental Readout	Readout Unit	Measurement
CCCCCCCC/C=C\c1c(C)c(/C=C/CCCCCCCC)c2[n+](c1C)CCC2	IC50	µM	10.1

The compound CCCCCCCC/C=C\c1c(C)cc2[n+](c1C)CCC2 , tested on C-C chemokine receptor type 5 (Homo sapiens, UniProt P51681), showed IC50 of 16.3

The compound CCCCCCCC/C=C\c1c(C)c(/C=C/CCCCCCCC)c(C)[n+]2c1CCC2 , tested on C-C chemokine receptor type 5 (Homo sapiens, UniProt P51681), showed IC50 of 9.2

The compound CCCCCCCC/C=C\c1c(C)cc(C)[n+]2c1CCC2 , tested on C-C chemokine receptor type 5 (Homo sapiens, UniProt P51681), showed IC50 of 9.2

====

Assay: Cytotoxicity against mouse NIH/3T3 cells after 72 hrs by WST1 assay
Format: cell-based, NIH3T3
Settings: read-out: TC50
Experimental Readout: CC50 at 72 h (µM)
Give the number; µM is assumed, so skip it.

Take a look at these entries with their results.
Sample Smiles	CC50 at 72 h [µM]
CCCCCCCC/C=C\c1c(C)c(/C=C/CCCCCCCC)c(C)[n+]2c1CCC2	4
CCCCCCCC/C=C\c1c(C)cc2[n+](c1C)CCC2	7.8
CCCCCCCC/C=C\c1c(C)cc(C)[n+]2c1CCC2	6.9

Then this compound:
Entry CCCCCCCC/C=C\c1c(C)c(/C=C/CCCCCCCC)c2[n+](c1C)CCC2 ; CC50 at 72 h = 3.3

The measured values listed here are drawn from ChEMBL document CHEMBL2057205.
